For reference, the following pKi results for Plasminogen (Homo sapiens) were taken from various sources.
Please note pKi is a logarithmic value: minus log10 of concentration in mol/L. Answer with that number alone.

The following compounds have reported results that may help.
{"Molecular string": "C[C@H](NC(=O)[C@H](N)CO)C(=O)N[C@@H](CCCNC(=N)N)C(=O)NCCCCCCCCCN", "Target under test": "Plasminogen (Homo sapiens)", "Test result": 4.05}
{"Molecular string": "C[C@H](NC(=O)[C@H](N)CO)C(=O)N[C@@H](CCCNC(=N)N)C(=O)NCCCCCCN", "Target under test": "Plasminogen (Homo sapiens)", "Test result": 3.74}
{"Molecular string": "CCOc1cc(OCC)c(F)c([C@@H](Nc2ccc(C(=N)N)c(O)c2)C(=O)NS(=O)(=O)c2cccc(N)c2)c1", "Target under test": "Plasminogen (Homo sapiens)", "Test result": 5.92}

Tell me reported pKi for `N=C(N)c1cc2cc(-c3cccc(-c4ccccc4)c3O)[nH]c2cc1F` , tested with Plasminogen (Homo sapiens).
6.46

// same read-out, input: `[H]/N=C(\N)c1ccc(NCc2nc3cc(Cn4c(C)nc5ccccc54)ccc3n2C)cc1`
5.04

// same read-out, input: `N=C(N)NCCC[C@H](NC(=O)C1(NC(=O)[C@H](N)CO)CCCCC1)C(=O)O`
5.11

// same read-out, input: `C[C@H](NC(=O)[C@H](N)CO)C(=O)N[C@@H](CCCNC(=N)N)C(=O)NCCCCCN`
4.43
